Taken from patent US12281122B1.

# System: SKBR3 (PI3Kα-Wild Type) cell line
# method_description: HTRF phospho-AKT(S473) cell assay in SKBR3 cells
# Type: cell-based, human
# experimental_parameters: Homo sapiens, SK-BR-3; HTRF phospho-AKT(S473), SKBR3 (PI3Kα-Wild Type) cells, 2 hours compound incubation, PDGF-BB stimulated
observable: IC50

Answered cases to consult:
Asked: Please state recorded IC50 (tested on SKBR3 (PI3Kα-Wild Type) cell line) of Cc1cc([C@@H](C)Nc2ccc(Cl)nc2C(=O)NS(C)(=O)=O)c2nc(N3C[C@H]4CC4(c4cnc(C)cn4)C3)n(C)c(=O)c2c1 (relative stereo) [Compound 749]
Given back: ≥ 5 µM

Asked: Please state recorded IC50 (tested on SKBR3 (PI3Kα-Wild Type) cell line) of Cc1cc([C@@H](C)Nc2ccc(Cl)nc2C(=O)NS(C)(=O)=O)c2nc([C@H]3[C@@H]4CN(c5cnc(C)cn5)C[C@@H]43)n(C)c(=O)c2c1 [Compound 811]
Given back: ≥ 5 µM

Asked: Please state recorded IC50 (tested on SKBR3 (PI3Kα-Wild Type) cell line) of Cc1cc([C@@H](C)Nc2ccc(Cl)nc2C(=O)NS(C)(=O)=O)c2nc(C3(c4ccccc4)CC3)n(C)c(=O)c2c1 [Compound 830]
Given back: ≥ 5 µM

Asked: Please state recorded IC50 (tested on SKBR3 (PI3Kα-Wild Type) cell line) of Cc1cc([C@@H](C)Nc2ccc(Cl)nc2C(=O)NS(C)(=O)=O)c2nc(N3CCC(c4ncccn4)CC3)n(C)c(=O)c2c1 [Compound 500]
Given back: 1 to 5 µM

Asked: Please state recorded IC50 (tested on SKBR3 (PI3Kα-Wild Type) cell line) of Cc1cc([C@@H](C)Nc2ccc(Cl)nc2C(=O)NS(C)(=O)=O)c2nc(-c3ccc(Nc4cnn(C)c4)c(F)c3)n(C)c(=O)c2c1 [Compound 806]
Given back: 1 to 5 µM

Asked: Please state recorded IC50 (tested on SKBR3 (PI3Kα-Wild Type) cell line) of Cc1cc([C@@H](C)Nc2ccc(Cl)nc2C(=O)NS(C)(=O)=O)c2nc(N3CCN(c4ncc(Cl)cn4)CC3)n(C)c(=O)c2c1 [Compound 530]
Given back: ≥ 5 µM

Asked: Please state recorded IC50 (tested on SKBR3 (PI3Kα-Wild Type) cell line) of Cc1cc([C@@H](C)Nc2ccc(Cl)nc2C(=O)NS(C)(=O)=O)c2nc(N3CCC[C@@H](c4cnc(C)nc4)C3)n(C)c(=O)c2c1 (relative stereo) [Compound 645]
Given back: ≥ 5 µM

Asked: Please state recorded IC50 (tested on SKBR3 (PI3Kα-Wild Type) cell line) of CCn1c(N2CCC(c3nc(C)n(C)n3)CC2)nc2c([C@@H](C)Nc3ccc(Cl)nc3C(=O)NS(C)(=O)=O)cc(C)cc2c1=O [Compound 616]
Given back: ≥ 5 µM

Asked: Please state recorded IC50 (tested on SKBR3 (PI3Kα-Wild Type) cell line) of COc1ncc([C@H]2[C@@H]3CN(c4nc5c([C@@H](C)Nc6ccc(Cl)nc6C(=O)NS(C)(=O)=O)cc(C)cc5c(=O)n4C)C[C@@H]32)cn1 [Compound 483]
Given back: 1 to 5 µM

Asked: Please state recorded IC50 (tested on SKBR3 (PI3Kα-Wild Type) cell line) of Cc1cc([C@@H](C)Nc2ccc(Cl)nc2C(=O)NS(C)(=O)=O)c2nc(N3C[C@@H]4[C@H](C3)[C@H]4c3n[nH]cc3Cl)n(C)c(=O)c2c1 [Compound 593]
Given back: ≥ 5 µM

Continuing:
Asked: Please state recorded IC50 (tested on SKBR3 (PI3Kα-Wild Type) cell line) of Cc1cc([C@@H](C)Nc2ccc(Cl)nc2C(=O)NS(C)(=O)=O)c2nc(N3C[C@@H]4C[C@H]3C[C@@H]4c3nn(C)cc3F)n(C)c(=O)c2c1 (relative stereo) [Compound 444]
Given back: ≥ 5 µM

Asked: Please state recorded IC50 (tested on SKBR3 (PI3Kα-Wild Type) cell line) of Cc1cc([C@@H](C)Nc2ccc(Cl)nc2C(=O)NS(C)(=O)=O)c2nc(N3Cc4ccc(C)nc4C3)n(C)c(=O)c2c1 [Compound 514]
Given back: 1 to 5 µM
